target: T1, HER2ECDHis (human, UniProt P04626 23-653, biotinylated in the cross-block ELISA (sites not given)); assay: ELISA; competitor 050
T1 construct: range 1-653; expressed in HEK-293F; also called soluble HER2; biotinylated HER2ECDHis
parameter: % binding vs no competitor (%)
Express the result in % but write the number alone.

HuMab 129 (antibody, V domains shown) VH: QVQLVESGGGVVQPGRSLRLSCAASGFTFSTFAIHWVRQAPGKGLEWVAVISYDGGHKFYADSVKGRFTISRDNSKNTLYLQMNSLRAEDTAMYYCARGLGVWGAFDYWGQGTLVTVSS VL: EIVLTQSPATLSLSPGERATLSCRASQSVSSYLAWYQQKPGQAPRLLIYDASNRATGIPARFSGSGSGTDFTLTISSLEPEDFAVYYCQQRSNWWTFGQGTKVEIK | 97
HuMab 084 (antibody, V domains shown, also called TH1014-084; PC1014-084) VH: QVQLVQSGAEVKKPGSSVKVSCKASGGTFRTYAINWVRQAPGQGLEWMGRINTVLGIVNHAQKFQGRVTITADKSTNTAYMELNSLRSEDTAVYYCAREKGVDYYYGIEVWGQGTTVTVSS VL: DIQMTQSPSSVSASVGDRVTITCRASQGISSWLAWYQHKPGKAPKLLIYVASTLQSGVPSRFSGSGSGTDFTLTISSLQPEDFATYYCQQANSFPLTFGGGTKVEIK | 76

Now for a further binder.
Inquiry: Provide measured % binding vs no competitor value, entry: HuMab 153 (antibody, V domains shown) VH: QVQLVESGGGVVQPGRSLRLSCAASGFTFSDYVIHWVRQAPGKGLEWVTVISYDGSNKYYADSVKGRFTISRDNSKNTLYLQMNSLSAEDTAMYYCARGGITGTTGVFDYWGQGTLVTVSS VL: DIQMTQSPSSLSASVGDRVTITCRASQGISSWLAWYQQKPEKAPKSLIYDASSLQSGVPSRFSGSGYGTDFSLTISSLQPEDFAIYYCQQYKSYPITFGQGTRLEIK
Reply text: 103
